# target_or_system: Transcription factor p65 (Human)
# Sequence (Q04206 whole entry): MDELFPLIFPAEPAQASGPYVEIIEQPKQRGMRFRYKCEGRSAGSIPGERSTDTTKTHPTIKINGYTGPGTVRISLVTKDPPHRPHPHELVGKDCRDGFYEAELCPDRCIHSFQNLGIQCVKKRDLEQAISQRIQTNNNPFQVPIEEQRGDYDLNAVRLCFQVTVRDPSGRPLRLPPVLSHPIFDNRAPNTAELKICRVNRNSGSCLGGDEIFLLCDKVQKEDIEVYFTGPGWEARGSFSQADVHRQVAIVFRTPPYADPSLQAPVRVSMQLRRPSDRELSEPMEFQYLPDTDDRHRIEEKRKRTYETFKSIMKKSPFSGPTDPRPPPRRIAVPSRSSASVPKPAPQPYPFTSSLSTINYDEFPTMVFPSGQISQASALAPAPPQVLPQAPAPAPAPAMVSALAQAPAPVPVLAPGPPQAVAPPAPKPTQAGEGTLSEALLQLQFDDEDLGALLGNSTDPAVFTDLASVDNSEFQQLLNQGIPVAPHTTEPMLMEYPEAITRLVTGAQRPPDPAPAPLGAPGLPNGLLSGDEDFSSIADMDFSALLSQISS
# protocol_notes: Inhibition of TNF-alpha-stimulated human NF-kappaB p65 RelA subunit nuclear translocation in HUVEC
Each entry below carries its reported IC50.
Express it in µM; write the number only.

Solved entries:
smiles_input=Cc1ccc2ccc3c(c2n1)NS(=O)(=O)c1ccc(C(F)(F)F)cc1-3 target_or_system="Transcription factor p65 (Human)" val=1.2
smiles_input=Cc1ccc2cccc(NS(=O)(=O)c3ccc(C(F)(F)F)cc3[N+](=O)[O-])c2n1 target_or_system="Transcription factor p65 (Human)" val=1.1
smiles_input=COc1cc2cccnc2c2c1-c1cc(C)ccc1S(=O)(=O)N2 target_or_system="Transcription factor p65 (Human)" val=1.2

QUERY: Fill in the blank: the reported IC50 of `Cc1ccc2cccc(NS(=O)(=O)c3ccccc3[N+](=O)[O-])c2n1` is ____.
RESULT: 3.8

QUERY: Fill in the blank: the reported IC50 of `Cc1ccc2ccc3c(c2n1)NS(=O)(=O)c1ccc(O)cc1-3` is ____.
RESULT: 10

---

# protocol_notes: Induction of human IkappaBalpha stabilization in OCI-Ly3 cells by green light emiting IkappaBalpha-fused luciferase reporter gene assay
Peptide text beside a SMILES is read from it. * marks the point of attachment. Cbz = O=C(OCc1ccccc1)*
Each entry below carries its reported EC50.
Express it in µM; write the number only.

compound=O=S(=O)(Nc1cccc2cccnc12)c1cccs1 readout_label=EC50 val=5.3
compound="O=S(=O)(Nc1cccc2cccnc12)c1ccccc1 [N-(quinolin-8-yl)benzenesulfonamide]" readout_label=EC50 val=17
compound="CC(C)C[C@@H](C=O)NC(=O)[C@H](CC(C)C)NC(=O)[C@H](CC(C)C)NC(=O)OCc1ccccc1 (Cbz-Leu-Leu-Leu-aldehyde)" readout_label=EC50 val=1
compound=COc1cc2ccc(C)nc2c2c1-c1cc(C)ccc1S(=O)(=O)N2 readout_label=EC50 val=1.4
compound=Cc1ccc2c(c1)-c1ccc3cccnc3c1NS2(=O)=O readout_label=EC50 val=0.5

QUERY: Fill in the blank: the reported EC50 of `Cc1ccc2cccc(NS(=O)(=O)c3ccccc3N)c2n1` is ____.
RESULT: 8

QUERY: Fill in the blank: the reported EC50 of `O=[N+]([O-])c1ccccc1S(=O)(=O)Nc1cccc2cccnc12` is ____.
RESULT: 11

QUERY: Fill in the blank: the reported EC50 of `O=[N+]([O-])c1cc(C(F)(F)F)ccc1S(=O)(=O)Nc1cccc2cccnc12` is ____.
RESULT: 3.6

QUERY: Fill in the blank: the reported EC50 of `COc1cc(NS(=O)(=O)c2ccc(C)cc2)c2nc(C)ccc2c1` is ____.
RESULT: 20

QUERY: Fill in the blank: the reported EC50 of `Cc1ccc2ccc3c(c2n1)NS(=O)(=O)c1ccc(C(F)(F)F)cc1-3` is ____.
RESULT: 8.9

QUERY: Fill in the blank: the reported EC50 of `COc1ccc2c(c1)-c1ccc3ccc(C)nc3c1NS2(=O)=O` is ____.
RESULT: 3.7

QUERY: Fill in the blank: the reported EC50 of `COc1cc(NS(=O)(=O)c2ccc(C)cc2[N+](=O)[O-])c2ncccc2c1` is ____.
RESULT: 6.8

QUERY: Fill in the blank: the reported EC50 of `O=S1(=O)Nc2c(ccc3cccnc23)-c2cc(F)ccc21` is ____.
RESULT: 4.1

QUERY: Fill in the blank: the reported EC50 of `O=S(=O)(Nc1cccc2cccnc12)c1ccc(Br)s1` is ____.
RESULT: 5.9
